biological target: ZFP SBS#661 (synthetic); assay: EMSA; conditions: tags: MBP fusion
Sequence (chain, as listed by the source): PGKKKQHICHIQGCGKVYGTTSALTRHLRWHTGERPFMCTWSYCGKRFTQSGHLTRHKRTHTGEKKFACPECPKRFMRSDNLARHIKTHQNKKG
recorded endpoint: Kd (nM)
Hi! Could you send only the number? It should be in nM, unit omitted.

Input line: Fill in the blank: the reported Kd of GAGGGAGTTC (dsDNA) DNA 1: GAGGGAGTTC DNA 2: GAACTCCCTC is ____.
Output line: 1.73
